System: MCF7 breast
assay-protocol: NCI-60 one-dose screen, 48 h (100 = growth as untreated, 0 = no growth, -100 = all killed)
assay-conditions: 10 µM unless noted
This is part of a sample that, as a whole, favours compounds with a hit. Of some 83,000 tested, about 20% had one in any assay.
Measured growth, listed per entry.
Only the number, expressed in %, is required.

Form field - read-out: growth; system: MCF7 breast; submitted item: CC12OC(CC(O)C1O)n1c3ccccc3c3c4c(c5c6ccccc6n2c5c31)C(=O)N(CCN1CCOCC1)C4=O (centres undefined)
4.28

Form field - read-out: growth; system: MCF7 breast; submitted item: CCN1CCN(C(=O)[C@]23CC[C@@H](C)[C@H](C)[C@@H]2C2=CC[C@@H]4[C@@]5(C)CCC(=O)C(C)(C)[C@@H]5CC[C@@]4(C)[C@]2(C)CC3)CC1
4.77

Form field - read-out: growth; system: MCF7 breast; submitted item: COc1ccc(Cl)cc1Nc1nc(C(F)(F)F)ccc1C(=O)N/N=C/c1ccc(N(C)C)cc1
218

Form field - read-out: growth; system: MCF7 breast; submitted item: Cc1ccc(-c2nc3nc(-c4ccc(Br)cc4)nc(N4CCCNCC4)c3o2)cc1
-75.8

Form field - read-out: growth; system: MCF7 breast; submitted item: CN(Cc1ccccc1)c1nc(Cl)c(C2CC(c3ccc(F)cc3)=NN2C=O)s1 (centres undefined)
86.7

Form field - read-out: growth; system: MCF7 breast; submitted item: O=c1ccc2nc(-c3ccccn3)nn(-c3ccccc3)c-2c1
-56

Form field - read-out: growth; system: MCF7 breast; submitted item: Cn1cc(-c2nc3c(F)cc4[nH]ncc4c3c3c2CCCC3)c(C(F)F)n1
46.5

Form field - read-out: growth; system: MCF7 breast; submitted item: CCNC(=S)n1nc(SC)c(C(=O)OCC)c1N
92

Form field - read-out: growth; system: MCF7 breast; submitted item: Cc1nc(-n2[nH]c(=O)ccc2=O)sc1N=Nc1ccccc1
94.2

Form field - read-out: growth; system: MCF7 breast; submitted item: Cc1cnc(C(=O)NNc2nc3sc4c(c3c(=O)[nH]2)C(C)CCC4)cn1 (centres undefined)
13.9

Form field - read-out: growth; system: MCF7 breast; submitted item: O=C([C@H]1C[C@H]1c1ccc(S(F)(F)(F)(F)F)cc1)N1CCN(c2cc(Cl)ccc2C(F)(F)F)CC1
89.6

Form field - read-out: growth; system: MCF7 breast; submitted item: O=C(CCCCCCCCC(=O)N/N=C\c1ccccc1O)N/N=C\c1ccccc1O
16.9

Form field - read-out: growth; system: MCF7 breast; submitted item: Brc1ccc(/C=C(/C2=NCCN2)n2ccc3ccccc32)cc1
30.2

Form field - read-out: growth; system: MCF7 breast; submitted item: C[N+]1=C(/C=C\C=C\c2ccccc2)C(C)(C)c2ccccc21
7.58

Form field - read-out: growth; system: MCF7 breast; submitted item: N=C1/C(=C2\NC3C=CC=CC3S2)C(c2ccc(Cl)cc2)C2C(=O)N(c3ccccc3)C(=S)N12 (centres undefined)
94.1

Form field - read-out: growth; system: MCF7 breast; submitted item: O=C(Nc1ncc(Cc2cccc(C(F)(F)F)c2)s1)c1ccc(-n2cnnn2)cc1
28.7

----------
Test system: OVCAR-4 ovarian
assay-protocol: NCI-60 one-dose screen, 48 h (100 = growth as untreated, 0 = no growth, -100 = all killed)
assay-conditions: 10 µM unless noted
The panel holds about 83,000 compounds, 20% with a hit somewhere; the sample as a whole holds those more often. Active and inactive are the calls of the source. How the source made its calls: active means growth percent below 10; inactive means the rest.
Measured growth, listed per entry.

{"compound": "CC[C@@H]1NC(=O)[C@H]([C@H](O)[C@H](C)C/C=C/c2ccc(CN3C(=O)C(C)=C(C)C3=O)cc2)N(C)C(=O)[C@H](C(C)C)N(C)C(=O)[C@H](CC(C)C)N(C)C(=O)[C@H](CC(C)C)N(C)C(=O)[C@@H](C)NC(=O)[C@H](C)NC(=O)[C@H](CC(C)C)N(C)C(=O)[C@H](C(C)C)NC(=O)[C@H](CC(C)C)N(C)C(=O)CN(C)C1=O", "test-result": "74.4% (inactive)"}
{"compound": "C=C1CC[C@@H]2[C@](C)(COC(C)=O)[C@H](OC(C)=O)CC[C@@]2(C)[C@@H]1CC(Nc1ccc(S(=O)(=O)Nc2nccs2)cc1)C1=CCOC1=O (some centres not stated)", "test-result": "38% (inactive)"}
{"compound": "OB(O)c1ccsc1-c1nc2ccc3[nH]ncc3c2c2c1CCCC2", "test-result": "72.3% (inactive)"}
{"compound": "COc1cc2cc(NCc3ccncc3)nc(C)c2cc1OC", "test-result": "94.4% (inactive)"}

Form field - read-out: growth; system: OVCAR-4 ovarian; submitted item: N=C(N)SCc1c2ccccc2c(CSC(=N)N)c2ccccc12
80.6% (inactive)

Form field - read-out: growth; system: OVCAR-4 ovarian; submitted item: Nc1nc2ccccc2c2c(=O)c3ccc(Cl)cc3sc12
92.1% (inactive)

Form field - read-out: growth; system: OVCAR-4 ovarian; submitted item: O=C1CCCCN1CCCCC#Cc1cccc(C#Cc2cccnc2)c1
93.8% (inactive)

----------
System: MOLT-4 leukemia
assay-protocol: NCI-60 one-dose screen, 48 h
assay-conditions: 10 µM unless noted
Procedure: Growth inhibition of the MOLT-4 human tumor cell line is measured as a screen for anti-cancer activity. Cells are grown in 96 well plates and exposed to the test compound for 48 hours. Compounds are tested at a single concentration, which is 10^-5 M for most compounds. The reported endpoint is percent growth (GI% or GIPRCNT), where numbers from 0 - 100% represent growth inhibition, and numbers from -100% - 0 represent cell death. For example, a value of 40 represents 60% growth inhibition. […]
This is part of a sample that, as a whole, favours compounds with a hit. Of some 83,000 tested, about 20% had one in any assay. Activity calls are given as the source filed them. The calls were made as follows: active = growth percent below 10; inactive = the rest.
# valid calls are active, inactive; nothing else

Would you mind telling me which call this test gave CCCN1C(=O)/C(=c2\sc3n(c2=O)C2C(NN=3)N(CC)C(=O)N2CC)c2ccccc21 (centres undefined) ?
inactive

Would you mind telling me which call this test gave Nn1c(-c2ccc(Cl)cc2)nc2c(-c3ccc(Cl)cc3)nc3ccc(Cl)cc3c2c1=O ?
inactive

Would you mind telling me which call this test gave Cc1ccc(-c2nc3nc(-c4ccccc4)nc(N4CCN(S(=O)(=O)c5ccccc5)CC4)c3o2)cc1 ?
inactive

Would you mind telling me which call this test gave O=C1C(N2CCOCC2)=C(I)C(=O)c2ncccc21 ?
inactive

----------
System: HOP-62 NSCLC
assay-protocol: NCI-60 one-dose screen, 48 h (100 = growth as untreated, 0 = no growth, -100 = all killed)
assay-conditions: 10 µM unless noted
About 83,000 compounds went through this panel and 20% of them were active in at least one assay; those are over-represented in the sample as a whole.
Respond with MET for growth values of 90% and above, NOT MET for values below.

// known answers, use as guide
{"molecule": "CS(=O)(=O)Nc1cc(-c2ccc3ncnc(Nc4ccc(F)c(Cl)c4)c3c2)cnc1Cl", "label-value": "NOT MET"}
{"molecule": "CCCc1cc(C(N)=S)ccn1", "label-value": "MET"}

Hi, just wondering whether CC(=O)c1c(C)nc(SCC(=O)Nc2ccc(Cl)cc2)n1-c1ccc(Cl)cc1 shows growth of 90% or higher.
MET

Hi, just wondering whether COc1ccc(Cn2cc(C(=O)Nc3cccnc3Nc3ccccc3)nn2)cc1 shows growth of 90% or higher.
MET

Hi, just wondering whether COc1nc(=O)n(C2C=CC(=O)O2)cc1F (centres undefined) shows growth of 90% or higher.
MET

Hi, just wondering whether COC(=O)/C=C1/SC(N2N=C(c3cccs3)CC2c2ccc(F)cc2)=NC1=O (centres undefined) shows growth of 90% or higher.
NOT MET

Hi, just wondering whether Cc1ccc(-c2nc3nc(-c4ccccc4)nc(N4CCN(S(=O)(=O)c5ccccc5)CC4)c3o2)cc1 shows growth of 90% or higher.
NOT MET

----------
Tested on: SW-620 colon
assay-protocol: NCI-60 one-dose screen, 48 h
assay-conditions: 10 µM unless noted
Compounds without any hit were thinned out: in the full panel of roughly 83,000, 20% have a hit. Active and inactive are the calls of the source. How the source made its calls: active means growth percent below 10; inactive means the rest.
# valid calls are active, inactive; nothing else

// known answers, use as guide
{"molecule": "O=C1OCC2=C1C(c1cccc([N+](=O)[O-])c1)c1cc3c(cc1N2CCO)CCC3 (stereo not given)", "label-value": "inactive"}
{"molecule": "CC1=CC=C(NC(=O)/C=C/c2ccccc2)CC1Nc1nccc(-c2cccnc2)n1 (stereo not given)", "label-value": "inactive"}
{"molecule": "O=C1C(N2CCOCC2)=C(I)C(=O)c2ncccc21", "label-value": "inactive"}

Would you mind telling me which call this test gave CN(Cc1ccccc1)c1nc(Cl)c(C2CC(c3ccc(F)cc3)=NN2C=O)s1 (stereo not given) ?
inactive

Would you mind telling me which call this test gave COc1cc(/C=N/NC(=O)CCN2c3ccccc3Sc3ccccc32)cc(OC)c1OC ?
inactive

Would you mind telling me which call this test gave COc1cc(F)c(/C=C/c2cc(/C=C/c3cc(OC)c(OC)cc3F)n(-c3cc(F)cc(F)c3)n2)cc1OC ?
active

Would you mind telling me which call this test gave COCCn1cc(-c2csc(-c3cn(C)c4ccc(F)cc34)n2)c2cccnc21 ?
inactive

Would you mind telling me which call this test gave N#Cc1c(N)nnn1Cc1cc(=O)oc2ccc(O)cc12 ?
inactive

Would you mind telling me which call this test gave COc1cc(-c2nc(SCCC(C)C)nc(Nc3ccc(F)cc3)c2C#N)cc(OC)c1OC ?
inactive

Would you mind telling me which call this test gave COc1ccc(N2CCN(S(=O)(=O)c3oc(-c4ccccc4)nc3C#N)CC2)cc1 ?
active
